Tested on: T-47D breast
Assay: NCI tumour cell line growth inhibition, 48 h
Here the recorded GI50 is given for each entry.
Property measured: GI50

>  <Record smiles>
COc1cc(-c2cn(-c3ccc(Cl)cc3)c(=O)n2-c2ccccc2)cc(OC)c1OC

>  <Result>
21.7 µM

$$$$
>  <Record smiles>
CC1(C)CCC(CN2CCN(c3ccc(C(=O)NS(=O)(=O)c4ccc(NCC5CCOCC5)c([N+](=O)[O-])c4)c(Oc4cnc5[nH]ccc5c4)c3)CC2)=C(c2ccc(Cl)cc2)C1

>  <Result>
3.25 µM

$$$$
>  <Record smiles>
O=[N+]([O-])c1ccc([I+]c2ccccc2)cc1

>  <Result>
1.3 µM

$$$$
>  <Record smiles>
C#CCSc1nnnn1-c1ccc(Br)c(C)c1

>  <Result>
21 µM

$$$$
>  <Record smiles>
CCN(CC)c1ccc(/C=C/C2=[N+](C)c3ccccc3C2(C)C)cc1

>  <Result>
0.205 µM

$$$$
>  <Record smiles>
O=C1/C(=C\c2ccccc2)CN(C(=O)c2ccccc2F)C/C1=C\c1ccccc1

>  <Result>
2.57 µM

$$$$
>  <Record smiles>
Cc1nc(N=C(N)N)nc2ccc3ccccc3c12

>  <Result>
1.12 µM

$$$$

----------
Tested on: NCI-H226 lung
Experiment: NCI tumour cell line growth inhibition, 48 h
Measured TGI, listed per entry.
Property measured: TGI (µM)

>  <Molecule>
Cc1c(/C=N\NC(=S)N(C)CCN(C)C(=S)N/N=C\c2c(C)n(C)n(-c3ccccc3)c2=O)c(=O)n(-c2ccccc2)n1C

>  <Property measured>
TGI

>  <Op>
>

>  <Result>
100

$$$$
>  <Molecule>
COC(=O)[C@@H](COC(=O)/C=C/c1ccc(OC(C)=O)c(OC(C)=O)c1)NC(=O)/C=C/c1ccc(OC(C)=O)c(OC(C)=O)c1

>  <Property measured>
TGI

>  <Op>
>

>  <Result>
100

$$$$
>  <Molecule>
CC(C)=CCc1c(O)c(CC=C(C)C)c2oc3c(c(=O)c2c1O)C(C=C(C)C)Oc1cc(O)ccc1-3 (centres undefined)

>  <Property measured>
TGI

>  <Op>
=

>  <Result>
49.8

$$$$
>  <Molecule>
CCC1c2[nH]c3ccccc3c2C[C@H]2C(=O)NC(Cc3ccccc3)C(=O)N12 (some centres undefined)

>  <Property measured>
TGI

>  <Op>
=

>  <Result>
74.9

$$$$

----------
System: M14 melanoma
Experiment: NCI tumour cell line growth inhibition, 48 h; in the data active = GI50 below about 0.43 µM; inactive = the rest
Outcomes: true (active), false (inactive)

>  <Compound>
OCCC#Cc1ccccc1C#Cc1ccccc1

>  <Class>
false

$$$$
>  <Compound>
O=C1c2cccnc2-c2nc(-c3ccccc3)cc3c2c1nc1ccccc13

>  <Class>
false

$$$$
>  <Compound>
C/C(=N\NC(=S)Nc1ccccc1)c1ccccn1

>  <Class>
true

$$$$
>  <Compound>
CCN1C(=O)N(CC)C2C1NN=c1s/c(=C\c3ccc([N+](=O)[O-])cc3)c(=O)n12 (stereo not drawn)

>  <Class>
true

$$$$
>  <Compound>
Cc1ccc2c(c1)/C(=N\N=C/c1cn(C(C)C)c3ccccc13)C(=O)N2

>  <Class>
false

$$$$
>  <Compound>
O=[N+]([O-])c1ccc([I+]c2ccccc2)cc1

>  <Class>
false

$$$$
>  <Compound>
CCOC(=O)/C(=C/c1c(-c2ccccc2)[nH]c2ccccc12)C(=O)c1ccc(Cl)cc1

>  <Class>
false

$$$$
>  <Compound>
COc1cc(-c2cn(-c3ccc(Cl)cc3)c(=O)n2-c2ccccc2)cc(OC)c1OC

>  <Class>
false

$$$$
>  <Compound>
CC1(C)CCC(CN2CCN(c3ccc(C(=O)NS(=O)(=O)c4ccc(NCC5CCOCC5)c([N+](=O)[O-])c4)c(Oc4cnc5[nH]ccc5c4)c3)CC2)=C(c2ccc(Cl)cc2)C1

>  <Class>
false

$$$$
>  <Compound>
C#CCSc1nnnn1-c1ccc(Br)c(C)c1

>  <Class>
false

$$$$
>  <Compound>
O=C1/C(=C\c2ccccc2)CN(C(=O)c2ccccc2F)C/C1=C\c1ccccc1

>  <Class>
false

$$$$
>  <Compound>
S=c1nc(/C=C/c2ccc(Cl)c(Cl)c2)[nH][nH]1

>  <Class>
false

$$$$
>  <Compound>
O=C(O)Cc1ccccc1

>  <Class>
false

$$$$
